Where do these numbers come from? They come from the Human Domainome abundance scans (Beltran et al. 2025).

B1: WW domain-containing transcription regulator protein 1, residues 116 to 162; numbered along this chain, Q9GZV5 (parent)
chain: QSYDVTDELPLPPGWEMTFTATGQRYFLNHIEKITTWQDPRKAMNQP

variants of: B1; experiment: abundance fitness (aPCA) (normalised: wild type 0, dead -1); higher = more abundant; growth selection in yeast, the domain comes from the species named; settings: Homo sapiens
Category key, based on recorded abundance fitness: lower band: < -0.3; central band: ≥ -0.3 and < -0.1; upper band: ≥ -0.1

VARIANT_NOTATION | ANSWER_LABEL
P47A | upper band
L28V | upper band
E16P | lower band
K42E | upper band
Q24P | lower band
F19M | central band
R25Q | central band
N45E | central band
P40L | lower band
F27G | lower band
A21C | central band
F19D | lower band
T6Q | central band
L11N | lower band
Q1M | upper band
T6P | upper band
T18N | central band
T35L | lower band
H30A | central band
Y26P | lower band
H30K | upper band
N45P | central band
Q38P | lower band
P10V | central band
E32A | upper band
N45H | upper band
L11H | lower band
L28C | central band
E8K | upper band
L11D | lower band
T36V | lower band
P10D | upper band
V5P | central band
